# System: HCT-116 colon
# protocol.description: NCI-60 one-dose screen, 48 h (100 = growth as untreated, 0 = no growth, -100 = all killed)
# study.conditions: 10 µM unless noted
The panel holds about 83,000 compounds, 20% with a hit somewhere; the sample as a whole holds those more often.
I would appreciate it if you labelled entries True when growth is 70% or higher, otherwise False.

C/C(=N\Nc1cc(C)c2cc(C)ccc2n1)c1ccccn1 :: False
COc1ccc2nc(-c3c(-c4ccccc4)nc4ncccn34)[nH]c2c1 :: True
CCCC1CCCCN1C(=O)OCC(C)C (stereo unspecified) :: True
NC(=O)[C@@H]1CC2CCC1C2 (stereo partly specified) :: True
COc1ccc(C(=O)c2cc(OC)c(OC)c(OC)c2)cc1/C=C/C(=O)c1cc(OC)c(OC)c(OC)c1 :: False
CN(C)c1ccc(N)c2ccccc12 :: False
